# Tested on: rat cerebral bNOS
# assay info: inhibition of bNOS activity (nitrite production, Griess reaction)
# Type: biochemical
# experimental setup: 5 μM; 15 min; average of 4 wells
# Procedure: Rat cerebral bNOS in working buffer was incubated with L-arginine and the nitrites produced after 15 minutes were measured using the Griess reaction. Results are presented as the % inhibition of bNOS activity as compared to a negative control (0% inhibition) and positive control (100% inhibition). Each point represents the average inhibition ± standard deviation of 4 wells. […]
# label = Satisfied if bNOS Inhibition, % Inhib >= 10% else Not satisfied

>  <compound>
O=C(c1nc(-c2c[nH]c3ccccc23)c[nH]1)c1c[nH]c2cc(O)ccc12 [Topsentin, topsentin]

>  <answer label>
Not satisfied

$$$$
>  <compound>
CC(c1cnc(N)[nH]1)c1ccc(O)c2[nH]cc(-c3cnc(-c4c[nH]c5cc(Br)ccc45)c(=O)[nH]3)c12 (centres unmarked) [Dragmacidin-D, dragmacidin-D]

>  <answer label>
Satisfied

$$$$
>  <compound>
O=C1NC(c2c[nH]c3cc(Br)ccc23)CN=C1c1c[nH]c2cc(Br)ccc12 (centres unmarked) [Hamacanthin-A, hamacanthin-A]

>  <answer label>
Satisfied

$$$$
>  <compound>
CN1C[C@H](c2c[nH]c3c(Br)c(Br)cc(O)c23)NC[C@H]1c1c[nH]c2cc(Br)ccc12 (relative stereo) [Dragmacidin, dragmacidin]

>  <answer label>
Not satisfied

$$$$
